- Read-out: Monokine induced gamma interferon (MIG), CXCL9 (gene 4283)
- MEASUREMENT PROTOCOL: BSK_CASM3C_MIG: BioMAP Diversity Plus: CASM3C Assay for Monokine induced gamma interferon (MIG) Biomarker Activity (AID 2283048);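 note: MIG protein level measured by ELISA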
- TEST CONTEXT: primary human coronary artery smooth muscle cells; actives raise or lower the signal
Activity calls are given as the source filed them. Rule for the calls: active = hit-call score of the fitted dose curve at least 0.9, where 1 is the maximum; inactive = score below 0.9.
Respond only with the outcome that fits, drawn from TRUE for active, FALSE for inactive

[
  {
    "COMPOUND": "COc1ccccc1N",
    "GROUP": "FALSE"
  },
  {
    "COMPOUND": "O=C(N[C@H]1CN2CCC1CC2)c1ccc2c(c1)OCCO2",
    "GROUP": "FALSE"
  },
  {
    "COMPOUND": "Cc1cc(C(C)(C)c2ccc(O)c(C)c2)ccc1O",
    "GROUP": "FALSE"
  }
]

Asked: Field: outcome | Entry: CCOP(=O)(OCC)SCCSCC
Given back: FALSE

Asked: Field: outcome | Entry: O=S(=O)(C(Cl)(Cl)Cl)C(Cl)(Cl)Cl
Given back: TRUE

Asked: Field: outcome | Entry: CC(C)=CC1C(C(=O)OCc2cccc(Oc3ccccc3)c2)C1(C)C (stereo not drawn)
Given back: FALSE

Asked: Field: outcome | Entry: CC1(C)[C@H](C(=O)O[C@H](C#N)c2cccc(Oc3ccccc3)c2)[C@@H]1/C=C(\Cl)C(F)(F)F
Given back: FALSE

Asked: Field: outcome | Entry: CCCCOC(=O)COC(=O)c1ccccc1C(=O)OCCCC
Given back: FALSE

Asked: Field: outcome | Entry: N#Cc1cccnc1
Given back: FALSE

Asked: Field: outcome | Entry: OC(Cc1ccccc1Cl)(Cn1cncn1)C1(Cl)CC1 (stereo not drawn)
Given back: FALSE

Asked: Field: outcome | Entry: CC(C)(COCC1CO1)COCC1CO1 (stereo not drawn)
Given back: FALSE

Asked: Field: outcome | Entry: Cc1ccc(OP(=O)(Oc2ccc(C)cc2C)Oc2ccc(C)cc2C)c(C)c1
Given back: FALSE

Asked: Field: outcome | Entry: Cc1cc(Cl)ccc1N
Given back: FALSE

====

- Read-out: Human Leukocyte Antigen - DR isotype (HLADR), HLA-DRA (gene 3122)
- MEASUREMENT PROTOCOL: BSK_CASM3C_HLADR: BioMAP Diversity Plus: CASM3C Assay for Human Leukocyte Antigen - DR isotype (HLADR) Biomarker Activity (AID 2283043);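 note: cell-surface HLA-DR protein level quantified by ELISA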
- TEST CONTEXT: primary human coronary artery smooth muscle cells; actives raise or lower the signal
Calls of active or inactive are those of the source. How the source made its calls: active means hit-call score of the fitted dose curve at least 0.9, where 1 is the maximum; inactive means score below 0.9.
Respond only with the outcome that fits, drawn from active, inactive

[
  {
    "MOLECULE": "Oc1c(Br)cc(Br)cc1Br",
    "GROUP": "inactive"
  }
]

Asked: Field: outcome | Entry: CCCCOC(=O)COC(=O)c1ccccc1C(=O)OCCCC
Given back: inactive

Asked: Field: outcome | Entry: CC1(C)[C@H](C(=O)O[C@H](C#N)c2cccc(Oc3ccccc3)c2)[C@@H]1/C=C(\Cl)C(F)(F)F
Given back: inactive

Asked: Field: outcome | Entry: CCCCCCCCCCCCN(C)C
Given back: inactive

Asked: Field: outcome | Entry: CCOP(=O)(OCC)SCCSCC
Given back: inactive

Asked: Field: outcome | Entry: Cc1cc(C(C)(C)c2ccc(O)c(C)c2)ccc1O
Given back: active

Asked: Field: outcome | Entry: Oc1ccc(Cc2ccc(O)cc2)cc1
Given back: inactive

Asked: Field: outcome | Entry: Cc1ccc(OP(=O)(Oc2ccc(C)cc2C)Oc2ccc(C)cc2C)c(C)c1
Given back: inactive

Asked: Field: outcome | Entry: OC(Cc1ccccc1Cl)(Cn1[nH]cnc1=S)C1(Cl)CC1 (configuration not stated)
Given back: active

Asked: Field: outcome | Entry: Cc1c([N+](=O)[O-])c(C)c([N+](=O)[O-])c(C(C)(C)C)c1[N+](=O)[O-]
Given back: inactive

Asked: Field: outcome | Entry: Cc1cccc(OP(=O)(Oc2cccc(C)c2)Oc2cccc(C)c2)c1
Given back: inactive

Asked: Field: outcome | Entry: Cc1cc(C)cc(C)c1
Given back: inactive

Source listed as PubChem BioAssay (EPA / NIEHS).
